Here, each record is paired with measured drug sensitivity score data.
system: Caco-2; assay: drug sensitivity score (DSS) for viability; higher = more toxic; extreme values may be limits of the assay; settings: 72 h
METRIC NAME: drug sensitivity score

1) O=C(Nc1ccccc1)Nc1ccc(-c2ccc(C(=O)[C@@H]3CCC[C@@H]3C(=O)O)cc2)cc1    0.4
2) CCNC(=O)Nc1ccc(-c2nc3c(c(N4CCOC[C@@H]4C)n2)CCN(C2COC2)C3)cc1    11.1
3) C[N+]1(C)CCC(OC(=O)C(c2ccccc2)c2ccccc2)CC1    0
4) CC(C)=CCc1c(O)cc(O)c2c(=O)c(O)c(-c3ccc(C(F)(F)F)cc3)oc12    3.9
5) Oc1c(CN2CCCC2)cc(COCc2ccccc2)c2cccnc12    9.4
6) CCCCCCCCCCCCC[N+](C)(C)Cc1ccccc1    3.9
7) O=C(COc1ccc(C(=O)c2ccccc2)cc1)NC1CCN(Cc2ccccc2)CC1    0
8) O=c1[nH]c(=O)n([C@H]2C[C@H](O)[C@@H](CO)O2)cc1F    24.9
9) COc1c(N2CCNC(C)C2)c(F)cc2c(=O)c(C(=O)O)cn(C3CC3)c12 (centres undefined)    0
10) O=C1C[C@@]2(C(=O)N1)C(=O)N(Cc1ccc(Br)cc1F)C(=O)c1cccn12    0
11) CCCN1CCCC(c2cccc(O)c2)C1 (stereo in doubt)    0
12) O=C(C1CC1)N1CC[C@@H](Cc2n[nH]c(=O)n2-c2ccc(-c3ccc4occc4c3)cc2)C1    1.7
13) Cc1cccc(C)c1NC(=O)CN1CCCC1=O    0
14) O[C@@H](CN1CCNCC1)Cn1c2ccc(Br)cc2c2cc(Br)ccc21    7
15) CCc1cncnc1N1CCN(Cc2nc3cc(C(F)(F)F)ccc3[nH]2)CC1    2.1
16) CC(C)(C)c1ccc(-c2nc3ccccc3[nH]2)cc1    4.9
17) C[C@@H](CN1CCC(n2c(=O)[nH]c3cc(Cl)ccc32)CC1)NC(=O)c1ccc2ccccc2c1    1
18) CCCCOCCOc1nc(-c2ccc(C(=O)O)c(F)c2)sc1C    0.4
19) CN1CCN(C(=O)C2C(C(=O)O)[C@H]3CC[C@@H]2O3)CC1 (some centres undefined)    5.9

* * *

system: Caco-2; assay: cell viability relative to DMSO; higher = less toxic; conditions: 72 h; 10 nM
METRIC NAME: cell viability (%)

1. O=C(/C=C/c1cccnc1)c1ccncc1    97.1
2. O=C(Nc1ccccc1-c1cn2c(CN3CCNCC3)csc2n1)c1cnc2ccccc2n1    93.3
3. OC[C@H]1O[C@@H](Oc2cc3c(O)cc(O)cc3[o+]c2-c2ccc(O)c(O)c2)[C@H](O)[C@@H](O)[C@@H]1O    95.4
4. Cc1cc(Nc2cc(N3CCN(C)CC3)nc(Sc3ccc(NC(=O)C4CC4)cc3)n2)n[nH]1    91.1
5. COc1cc(NC(=O)c2ccccn2)ccc1Cl    94.5
6. Cc1cc(N2CCN([C@@H]3CN[C@H](C(=O)N4CCSC4)C3)CC2)n(-c2ccccc2)n1    97.9
7. CCCN(CCC)C(=O)Cc1c(-c2ccc(Cl)cc2)nc2ccc(Cl)cn12    103
8. CCN(CC)CC1CCCCN1CC(=O)N1c2ccccc2C(=O)Nc2cccnc21 (centres undefined)    104
9. O=C(O)/C=C/c1ccc(O)c(O)c1    92.8

* * *

system: HepG2; experiment: cell viability relative to DMSO; higher = less toxic; conditions: 72 h; 100 nM
METRIC NAME: cell viability (%)

1) CC(C)[C@@H](C)/C=C/[C@@H](C)[C@H]1CC[C@H]2C3=CC=C4C[C@@H](O)CC[C@]4(C)[C@H]3CC[C@]12C    96.5
2) CCCCOCCOc1nc(-c2ccc(C(=O)O)c(F)c2)sc1C    105
3) CC(C)(Sc1ccc(CCN(CCCCC2CCCCC2)C(=O)NC2CCCCC2)cc1)C(=O)O    99.1
4) CC(C)NCC(O)c1ccc(N)c(C#N)c1 (configuration not stated)    96.6
5) CCCCC(=O)O[C@H]1CC[C@H]2[C@@H]3CCc4cc(O)ccc4[C@H]3CC[C@]12C [ESTRADIOL VALERATE]    101
6) O=C(O)COc1cccc(CN(Cc2ccc(-n3cccn3)cc2)S(=O)(=O)c2cccnc2)c1    93.8
7) CC(=O)OCC(CCn1cnc2cnc(N)nc21)COC(C)=O    103
8) CCCCCCC(=O)OC1CC(C)(C)NC(C)(C)C1    99.5
9) CCc1cncnc1N1CCN(Cc2nc3cc(C(F)(F)F)ccc3[nH]2)CC1    103
10) CNS(=O)(=O)Cc1ccc2[nH]cc(CCN(C)C)c2c1    89.1
11) Cc1cc(Nc2cc(N3CCN(C)CC3)nc(Sc3ccc(NC(=O)C4CC4)cc3)n2)n[nH]1    70.4
12) O=C(Nc1ccccc1C(=O)Nc1ccc(CCO)cc1)c1ccc([N+](=O)[O-])cc1    96.3

* * *

test system: HepG2; test: relative viability EC50 (midpoint between 100% and the lowest measured viability); higher = less toxic; settings: 72 h
METRIC NAME: relative viability EC50

1. COc1cc(/C=C2\CCC/C(=C\c3ccc(O)c(OC)c3)C2=O)ccc1O    > 10 µM
2. Cc1ccc(NC(=O)c2ccc(CN3CC[C@H](N(C)C)C3)c(C(F)(F)F)c2)cc1Nc1nccc(-c2cncnc2)n1    1.8 µM
3. COc1ccc(CC2NCCc3c2[nH]c2ccc(C)cc32)c(Cl)c1OC (centres undefined)    > 10 µM
4. CCC(C)n1ncn(-c2ccc(N3CCN(c4ccc(OCC5COC(Cn6cncn6)(c6ccc(Cl)cc6Cl)O5)cc4)CC3)cc2)c1=O (centres undefined)    > 10 µM
5. O=C1C(=C(O)/C=C/c2ccc(O)cc2)C(=O)[C@@](O)([C@@H]2O[C@H](CO)[C@@H](O)[C@H](O)[C@H]2O)C(=O)[C@H]1[C@@H]1O[C@H](CO)[C@@H](O)[C@H](O)[C@H]1O    > 10 µM
6. COC(=O)[C@]12CCC(C)(C)C[C@H]1[C@H]1C(=O)C=C3[C@@]4(C)C=C(C#N)C(=O)C(C)(C)[C@@H]4CC[C@@]3(C)[C@]1(C)CC2    0.239 µM
7. CC(C)C[C@H](NC(=O)[C@H](CCCCN)NC(=O)[C@H](CCCNC(=N)N)NC(=O)[C@H](C)NC(=O)[C@H](CO)NC(=O)[C@H](CCCCN)NC(=O)[C@H](CCCNC(=N)N)NC(=O)[C@H](C)NC(=O)CNC(=O)[C@@H](NC(=O)[C@H](Cc1ccccc1)NC(=O)CNC(=O)CNC(=O)[C@@H](N)Cc1ccccc1)[C@@H](C)O)C(=O)N[C@@H](C)C(=O)N[C@@H](CC(N)=O)C(=O)N[C@@H](CCC(N)=O)C(=O)O    > 10 µM
8. Cc1cccc(C)c1NC(=O)CN1CCCC1=O    > 10 µM
9. Cc1cc(Nc2cc(N3CCN(C)CC3)nc(Sc3ccc(NC(=O)C4CC4)cc3)n2)n[nH]1    0.448 µM

* * *

tested on: U2OS; experiment: cell viability relative to DMSO; higher = less toxic; conditions: 72 h; 1 nM
Here, each record is paired with measured cell viability data.
METRIC NAME: cell viability (%)

1. CSc1ccccc1Nc1nc(N2CCNCC2)nc2c(NCC3CC3)ncnc12 [KHK-IN-1]    97.6
2. N=C(N)NCCC[C@H](NC(=O)[C@@H]1CCCN1C(=O)[C@@H]1CSSC[C@H](N)C(=O)N[C@@H](Cc2ccc(O)cc2)C(=O)N[C@@H](Cc2ccccc2)C(=O)N[C@@H](CCC(N)=O)C(=O)N[C@@H](CC(N)=O)C(=O)N1)C(=O)NCC(N)=O [vasopressin]    102
3. COc1ccc(/C=C/C(=O)Nc2ccccc2C(=O)O)cc1OC [tranilast]    97.2
4. CC[N+](C)(CC)CCOC(=O)C1c2ccccc2Oc2ccccc21 [methantheline]    99.1
5. COc1cc(OC)cc(N(CCNC(C)C)c2ccc3ncc(-c4cnn(C)c4)nc3c2)c1 [erdafitinib]    101
6. CCCCCCCCCCC[C@@H](C[C@@H]1OC(=O)[C@H]1CCCCCC)OC(=O)[C@H](CC(C)C)NC=O [orlistat]    96
7. COc1ccc([C@@H]2CC(=O)c3c(O)cc(O[C@@H]4O[C@H](CO)[C@@H](O)[C@H](O)[C@H]4O[C@@H]4O[C@@H](C)[C@H](O)[C@@H](O)[C@H]4O)cc3O2)cc1O [neohesperidin]    96.7
8. Cn1cc(C2=C(c3cn(C4CCN(Cc5ccccn5)CC4)c4ccccc34)C(=O)NC2=O)c2ccccc21 [enzastaurin]    102
